Numbers sourced from ChEMBL document CHEMBL3856276.

- assay comment: Apparent clearance in rat at 10 mg/kg, iv
- Assay type: ADME, organism-based
- conditions used: in vivo, read-out: CL(app) (converted)
value type: clearance (mL/min/kg)
Give bare numbers, in mL/min/kg.

Req: Look up clearance for this molecule: "COc1ccc2[nH]c3c(c2c1)C[C@H]1c2cc4c(cc2CCN1C3)OCO4"
Resp: 96.5

====

- assay comment: Tmax in rat at 10 mg/kg, iv
- Assay type: ADME, organism-based
- conditions used: in vivo
value type: Tmax (min)
Numbers only, in min.

Req: Item under review: "COc1ccc2[nH]c3c(c2c1)C[C@H]1c2cc4c(cc2CCN1C3)OCO4" . Reported Tmax?
Resp: 15

====

Provide the recorded inhibition for the entries that follow.
- system tested: Alpha-1A adrenergic receptor (Homo sapiens)
- assay comment: Antagonist activity at human full-length N-terminal SNAP-tagged alpha1A adrenoceptor expressed in HEK293 cells assessed as inhibition of agonist-induced calcium mobilization at 10 uM preincubated for 10 mins followed by agonist addition by fluo-4 AM dye-based assay relative to control
- Type: functional, cell-based
Numbers only, in %.

Below are worked cases with known answers.
INSERT INTO results (compound, system_tested, value_type, assay_value) VALUES
  ('COc1cc2c(cc1OC)C1Cc3c([nH]c4ccccc34)C(CC(C)C)N1CC2 (stereo unspecified)', 'Alpha-1A adrenergic receptor (Homo sapiens)', 'inhibition', 72),
  ('COc1ccc2c3c([nH]c2c1)CN1CCc2cc4c(cc2C1C3)OCO4 (stereo unspecified)', 'Alpha-1A adrenergic receptor (Homo sapiens)', 'inhibition', 100),
  ('COc1ccc2c(c1)CCN1C2Cc2c([nH]c3ccccc23)C1C1CC1 (stereo unspecified)', 'Alpha-1A adrenergic receptor (Homo sapiens)', 'inhibition', 31),
  ('CCCCOc1cc2c(cc1OC)C1Cc3c([nH]c4ccc(OC)cc34)CN1CC2 (stereo unspecified)', 'Alpha-1A adrenergic receptor (Homo sapiens)', 'inhibition', 63);

Dear colleague, could you send me inhibition for each of the items below? Thanks.
1. CCC1c2[nH]c3ccccc3c2CC2c3cc4c(cc3CCN21)OCO4 (stereo unspecified)
2. c1ccc2c3c([nH]c2c1)CN1CCc2cc4c(cc2[C@@H]1C3)OCO4
3. COc1ccc(C2c3[nH]c4ccccc4c3CC3c4cc5c(cc4CCN32)OCO5)cc1 (stereo unspecified)
4. CCOc1cc2c(cc1OC)C1Cc3c([nH]c4ccc(OC)cc34)CN1CC2 (stereo unspecified)

Resp:
1: 82; 2: 99; 3: 0; 4: 17

Hi team, please reply with inhibition for each item in this list.
1. COc1cc2c(cc1OC)[C@@H]1Cc3ccc(OC)c(OC)c3CN1CC2
2. COc1ccc2c(c1)CCN1C(C)c3[nH]c4ccccc4c3CC21 (stereo unspecified)
3. COc1ccc(C2c3[nH]c4ccccc4c3CC3c4cc(OC)c(OC)cc4CCN32)cc1 (stereo unspecified)
4. COc1cc2c(cc1OC)C1Cc3c([nH]c4ccccc34)C(c3ccc(F)cc3)N1CC2 (stereo unspecified)
5. COc1cc2c(cc1OC)C1Cc3c([nH]c4ccccc34)C(c3ccccc3)N1CC2 (stereo unspecified)
6. COc1ccc2[nH]c3c(c2c1)CC1c2cc(OC)c(O)cc2CCN1C3 (stereo unspecified)

Resp:
41.2
90
21
0
0
0

====

Consider the following pIC50 values measured on Alpha-1A adrenergic receptor (Homo sapiens, UniProt P35348).
One number for each entry, as −log10 of the molar value.

See these solved cases before continuing.
INSERT INTO measurements (compound, value_type, assay_value) VALUES
  ('c1c2c(cc3c1OCO3)CN1CCc3cc4c(cc3C1C2)OCO4 (configuration not stated)', 'pIC50', 6.34),
  ('COc1ccc2[nH]c3c(c2c1)C[C@H]1c2cc4c(cc2CCN1C3)OCO4', 'pIC50', 7.89),
  ('COc1ccc2c(c1OC)CN1CCc3cc4c(cc3[C@@H]1C2)OCO4 [CANADINE]', 'pIC50', 5.27),
  ('COc1ccc2[nH]c3c(c2c1)C[C@@H]1c2cc4c(cc2CCN1C3)OCO4', 'pIC50', 5.50),
  ('CCCOc1cc2c(cc1OC)CCN1Cc3[nH]c4ccc(OC)cc4c3CC21 (configuration not stated)', 'pIC50', 6.65);

Can you give me pIC50 for all of these, one by one?
1. Fc1ccc2c3c([nH]c2c1)CN1CCc2cc4c(cc2C1C3)OCO4 (configuration not stated)
2. COc1ccc2[nH]c3c(c2c1)CC1c2cc4c(cc2CCN1C3)OCO4 (configuration not stated)

Resp:
1: 5.69; 2: 7.75

====

- assay comment: AUC (0 to infinity) in rat at 10 mg/kg, iv
- Type: ADME, organism-based
- Parameters: dose 10 mg/kg, time infinity, route intravenous
- conditions used: in vivo
value type: AUC(0-inf) (ng·h/mL)
Numbers only, in ng·h/mL.

Req: // AUC(0-inf) lookup, key: "COc1ccc2[nH]c3c(c2c1)C[C@H]1c2cc4c(cc2CCN1C3)OCO4"
Resp: 1880

====

- system tested: Alpha-1A adrenergic receptor (Homo sapiens) (UniProt P35348)
- assay comment: Antagonist activity at human full-length N-terminal SNAP-tagged alpha1A adrenoceptor expressed in HEK293 cells assessed as inhibition of agonist-induced calcium mobilization at 10 uM preincubated for 10 mins followed by agonist addition by fluo-4 AM dye-based assay relative to control
- Type: functional, cell-based
value type: inhibition (%)
Numbers only, in %.

Consider the following illustrative entries.
INSERT INTO results (molecule, value_type, assay_value) VALUES
  ('c1ccc2c3c([nH]c2c1)CN1CCc2cc4c(cc2C1C3)OCO4 (centres undefined)', 'inhibition', 100),
  ('CC(C)CC1c2[nH]c3ccccc3c2CC2c3cc4c(cc3CCN21)OCO4 (centres undefined)', 'inhibition', 0),
  ('Fc1ccc2[nH]c3c(c2c1)CC1c2cc4c(cc2CCN1C3)OCO4 (centres undefined)', 'inhibition', 100);

Req: Record lookup: for Alpha-1A adrenergic receptor (Homo sapiens) (UniProt P35348), what inhibition belongs to COc1cc2c(cc1OC)C1Cc3c([nH]c4ccccc34)CN1CC2 (centres undefined) ?
Resp: 60

====

Assignment: determine reported Ratio IC50 for the given compounds.
- Species: Homo sapiens
- assay comment: Selectivity ratio of IC50 for human full-length N-terminal SNAP-tagged alpha1D adrenoceptor to IC50 for human full-length N-terminal SNAP-tagged alpha1A adrenoceptor

INSERT INTO results (compound, value_type, assay_value) VALUES
  ('CCCOc1cc2c(cc1OC)CCN1Cc3[nH]c4ccc(OC)cc4c3CC21 (stereo not given)', 'Ratio IC50', '> 44.4'),
  ('COc1ccc2[nH]c3c(c2c1)C[C@H]1c2cc4c(cc2CCN1C3)OCO4', 'Ratio IC50', 19.6),
  ('c1ccc2c3c([nH]c2c1)CN1CCc2cc4c(cc2[C@@H]1C3)OCO4', 'Ratio IC50', '> 174'),
  ('COc1cccc2[nH]c3c(c12)CC1c2cc4c(cc2CCN1C3)OCO4 (stereo not given)', 'Ratio IC50', '> 19.4');

Req: Could you tell me which Ratio IC50 is on file for c1ccc2c3c([nH]c2c1)CN1CCc2cc4c(cc2C1C3)OCO4 (stereo not given) ?
Resp: > 80

====

- system tested: UniProt:P35348
- Sequence (whole entry): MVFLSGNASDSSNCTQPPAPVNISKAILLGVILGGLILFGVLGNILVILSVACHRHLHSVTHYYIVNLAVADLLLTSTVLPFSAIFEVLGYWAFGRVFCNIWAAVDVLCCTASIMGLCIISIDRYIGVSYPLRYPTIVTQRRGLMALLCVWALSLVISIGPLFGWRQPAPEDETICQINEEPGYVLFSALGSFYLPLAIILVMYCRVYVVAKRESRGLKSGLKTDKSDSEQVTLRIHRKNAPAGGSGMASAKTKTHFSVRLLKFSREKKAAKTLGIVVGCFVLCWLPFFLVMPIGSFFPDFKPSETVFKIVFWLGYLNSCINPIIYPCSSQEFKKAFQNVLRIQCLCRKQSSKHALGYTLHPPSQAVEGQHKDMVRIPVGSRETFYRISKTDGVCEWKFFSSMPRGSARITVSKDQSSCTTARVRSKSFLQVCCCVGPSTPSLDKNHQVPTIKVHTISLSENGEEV
- assay comment: Antagonist activity at human full-length N-terminal SNAP-tagged alpha1A adrenoceptor expressed in HEK293 cells assessed as inhibition of agonist-induced calcium mobilization at 10 uM preincubated for 10 mins followed by agonist addition by fluo-4 AM dye-based assay relative to control
- Format: functional, cell-based
value type: inhibition (%)
Give bare numbers, in %.

INSERT INTO assay_data (compound, value_type, value_units, assay_value) VALUES
  ('CCCCOc1cc2c(cc1OC)CCN1Cc3[nH]c4ccc(OC)cc4c3CC21 (configuration not stated)', 'inhibition', '%', 98),
  ('C[C@H](Cc1cc2c(c(C(N)=O)c1)N(CCCO)CC2)NCCOc1ccccc1OCC(F)(F)F', 'inhibition', '%', 100),
  ('COc1ccc2[nH]c3c(c2c1)C[C@H]1c2cc4c(cc2CCN1C3)OCO4', 'inhibition', '%', 100);

List inhibition for every entry below, keeping the order given.
1. COc1ccc2[nH]c3c(c2c1)CC1c2cc4c(cc2CCN1C3)OCO4 (configuration not stated)
2. CCOc1ccccc1OCCN[C@H](C)Cc1ccc(OC)c(S(N)(=O)=O)c1
3. c1ccc(COc2ccc3[nH]c4c(c3c2)CC2c3cc5c(cc3CCN2C4)OCO5)cc1 (configuration not stated)
4. COc1ccc2c(c1)CCN1Cc3[nH]c4ccccc4c3CC21 (configuration not stated)

Resp:
1: 99; 2: 100; 3: 100; 4: 100
